Provide the recorded log(1/I50) for the entries that follow.

Task item: Provide measured log(1/I50) on Dihydrofolate reductase (Homo sapiens) (UniProt P00374) for CCOC(=O)CCC(NC(=O)c1ccc(NCc2ccc3nc(N)nc(N)c3c2C)cc1)C(=O)OCC (stereo unspecified) please.
Sequence (P00374 whole entry): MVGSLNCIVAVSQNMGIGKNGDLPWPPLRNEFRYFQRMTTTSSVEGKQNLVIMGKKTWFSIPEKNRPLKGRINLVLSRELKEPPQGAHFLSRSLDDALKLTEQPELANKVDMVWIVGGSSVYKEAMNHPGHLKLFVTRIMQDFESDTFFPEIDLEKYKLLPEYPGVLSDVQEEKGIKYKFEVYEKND
Reply: 8.49

Task item: Give Dihydrofolate reductase (Homo sapiens) (UniProt P00374) log(1/I50) for the following molecule: Cc1c(NCc2ccc(C(=O)NC(CCC(=O)O)C(=O)O)cc2)ccc2nc(N)nc(O)c12 (stereo unspecified)
Reply: 6.12

Task item: Write down measured log(1/I50) (Dihydrofolate reductase (Homo sapiens) (UniProt P00374)) for this molecule. `Nc1nc(N)c2cc(CNc3ccc(C(=O)NC(C(=O)O)C(=O)O)cc3)ccc2n1`
Reply: 9.1

Task item: Return reported log(1/I50) for target or system Dihydrofolate reductase (Homo sapiens) (UniProt P00374), item Nc1nc(N)c2cc(CNc3ccc(C(=O)NC(CC(=O)O)C(=O)O)cc3)ccc2n1 (stereo unspecified) .
Reply: 8.94

Task item: Report value: log(1/I50), system: Dihydrofolate reductase (Homo sapiens) (UniProt P00374), molecule: `CN(Cc1ccc2nc(N)nc(N)c2c1)c1ccc(Cl)c(Cl)c1`
Reply: 8.3

Task item: Fetch value of log(1/I50) on Dihydrofolate reductase (Homo sapiens) (UniProt P00374) for CCOC(=O)CCC(NC(=O)c1ccc(CNc2ccc3nc(N)nc(O)c3c2C)cc1)C(=O)OCC (stereo unspecified) .
Reply: 5.1

Task item: Give Dihydrofolate reductase (Homo sapiens) (UniProt P00374) log(1/I50) for the following molecule: `Cc1c(CNc2ccc(C(=O)NC(CC(=O)O)CC(=O)O)cc2)ccc2nc(N)nc(N)c12`
Reply: 8.17

Task item: Print Dihydrofolate reductase (Homo sapiens) (UniProt P00374) log(1/I50) for `Nc1nc(N)c2cc(CNc3ccc(Cl)c(C(F)(F)F)c3)ccc2n1` .
Reply: 8.4

Task item: Specify log(1/I50) for `CCOC(=O)c1ccc(NCc2ccc3nc(N)nc(O)c3c2)cc1` , system Dihydrofolate reductase (Homo sapiens) (UniProt P00374).
Reply: 4.66

Task item: Given `COc1cc(NCc2ccc3nc(N)nc(N)c3c2C)cc(OC)c1OC` , report its log(1/I50) on Dihydrofolate reductase (Homo sapiens) (UniProt P00374).
Reply: 8.89

Task item: Supply log(1/I50) measured with Dihydrofolate reductase (Homo sapiens) (UniProt P00374) for Cc1c(CNc2ccc(C(=O)NC(CCC(=O)O)C(=O)O)cc2)ccc2nc(N)nc(N)c12 (stereo unspecified) .
Reply: 8.78

Task item: # assay system Dihydrofolate reductase (Homo sapiens) (UniProt P00374): give log(1/I50) of Cc1c(NCc2ccc(C(=O)NC(CCC(=O)O)C(=O)O)cc2)ccc2nc(N)nc(N)c12 (stereo unspecified)
Reply: 9.07

Task item: Under Dihydrofolate reductase (Homo sapiens) (UniProt P00374), report log(1/I50) for Nc1nc(N)c2cc(CNc3ccc(Cl)c(C(=O)NC(CC(=O)O)C(=O)O)c3)ccc2n1 (stereo unspecified)
Reply: 7.92

Task item: State log(1/I50) (Dihydrofolate reductase (Homo sapiens) (UniProt P00374)) of Nc1nc(N)c2cc(CNc3cc(C(=O)NC(CC(=O)O)C(=O)O)ccc3Cl)ccc2n1 (stereo unspecified) .
Reply: 8.52

Task item: Please look at Cc1c(CNc2ccc(Cl)c(C(=O)NC(CCC(=O)O)C(=O)O)c2)ccc2nc(N)nc(N)c12 (stereo unspecified) and tell me its recorded log(1/I50) on Dihydrofolate reductase (Homo sapiens) (UniProt P00374).
Reply: 8.52

Task item: State recorded log(1/I50) with Dihydrofolate reductase (Homo sapiens) (UniProt P00374), entry Nc1nc(N)c2cc(CNc3ccc(C(=O)NC(CC(=O)O)C(=O)O)cc3Cl)ccc2n1 (stereo unspecified) , no comment.
Reply: 8.82

Source listed as ChEMBL document CHEMBL3227974.
